Biological target: human aromatic L-amino acid decarboxylase (DOPA decarboxylase) (Homo sapiens)
Construct: purchased R&D systems 3564-DC
Sequence (P20711 1-480): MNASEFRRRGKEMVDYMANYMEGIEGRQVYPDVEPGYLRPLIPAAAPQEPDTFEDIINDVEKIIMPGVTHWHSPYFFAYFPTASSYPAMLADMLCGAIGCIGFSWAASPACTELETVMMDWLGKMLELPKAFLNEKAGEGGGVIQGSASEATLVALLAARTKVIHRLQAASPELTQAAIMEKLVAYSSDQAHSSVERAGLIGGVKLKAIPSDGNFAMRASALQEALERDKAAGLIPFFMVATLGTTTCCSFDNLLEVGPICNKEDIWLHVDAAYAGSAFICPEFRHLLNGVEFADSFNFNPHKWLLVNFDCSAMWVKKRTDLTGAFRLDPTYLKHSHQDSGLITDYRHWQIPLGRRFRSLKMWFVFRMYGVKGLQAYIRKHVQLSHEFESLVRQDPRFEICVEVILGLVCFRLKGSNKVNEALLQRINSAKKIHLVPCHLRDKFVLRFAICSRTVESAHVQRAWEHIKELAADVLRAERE
Experiment: In vitro determination of human aromatic L-amino acid decarboxylase (DOPA decarboxylase) inhibition
Assay type: biochemical
Settings: did not inhibit up to the maximum concentration tested; recombinant human DOPA decarboxylase, 500 μM L-Dopa, 60 min pre-incubation; read-out: inhibition of human aromatic L-amino acid decarboxylase (IC50)
pIC50: −log10 of the molar value.

# compound, pIC50
rows = [
    ("C[C@](Cc1ccc(O)c(O)c1)(NN)C(=O)O [(R)-Carbidopa, (R)-carbidopa]", "< 5.52"),
]

###

target: human aromatic L-amino acid decarboxylase (DOPA decarboxylase) (Homo sapiens); construct: purchased R&D systems 3564-DC; assay: In vitro determination of human aromatic L-amino acid decarboxylase (DOPA decarboxylase) inhibition; type: biochemical; settings: recombinant human DOPA decarboxylase, 500 μM L-Dopa, 60 min pre-incubation; read-out: IC50 for inhibition of human aromatic L-amino acid decarboxylase

# molecule, measure.unit, IC50
measured = [
    ("C[C@](Cc1ccc(O)c(O)c1)(NN)C(=O)O (single isomer, unassigned) [(S)-Carbidopa]", "nM", 190),
]
